Reference source: patent US7303763B2

Experiment: Accelerated stability study of coated 0.625 mg conjugated estrogens tablets (active compounds and degradation products per USP, LOD)
Format: physicochemical
Details: acrylic-coated 0.625 mg tablets, Lot EXPWS 1251, 10% Eudragit/RS:RL (2:1); Initial
experimental readout: % Found (%)
Provide the reading as a plain figure in %.

Prompt: I have this compound here, C[C@]12CC[C@H]3C(=CCc4cc(O)ccc43)[C@@H]1CC[C@@H]2O [17b-dihydroequilin] , and I need its recorded % Found.
Completion: 2.3

Prompt: Further, for C[C@]12CC[C@@H]3c4ccc(O)cc4CC[C@H]3[C@@H]1CC[C@@H]2O [17b-estradiol] ?
Completion: 1.26

Prompt: Please answer likewise for `C[C@]12CC[C@H]3C(=CCc4cc(O)ccc43)[C@@H]1CCC2=O`
Completion: 27.3

Prompt: Note, next up: `C[C@]12CCc3c(ccc4cc(O)ccc34)[C@@H]1CCC2=O`
Completion: 2.2

Prompt: Next compound: C[C@]12CCc3c(ccc4cc(O)ccc34)C1CCC2O (stereo partly drawn) [17b-dihydroequilenin]
Completion: 0.77

Prompt: Request: C[C@]12CC[C@@H]3c4ccc(O)cc4CC[C@H]3[C@@H]1CC[C@H]2O [17a-estradiol]
Completion: 4.6

---

Assay: Accelerated stability study of coated 0.625 mg conjugated estrogens tablets (active compounds and degradation products per USP, LOD)
Assay type: physicochemical
Details: acrylic-coated tablets, Lot EXPWS 1251; 40c, 75% RH/1m
# % Initial per record follows
Entry rule: numbers only, all in %.

Worked cases, answers included:
1. C[C@]12CCC3=C(CCc4cc(O)ccc43)[C@@H]1CCC2=O [d8,9 dehydroesterone] = 99.5
2. C[C@]12CC[C@H]3C(=CCc4cc(O)ccc43)[C@@H]1CCC2=O [Equilin] = 99.3
3. C[C@]12CCc3c(ccc4cc(O)ccc34)[C@@H]1CCC2=O [Equilenin] = 104.5
4. C[C@]12CCc3c(ccc4cc(O)ccc34)C1CCC2O (stereo partly drawn) [17b-dihydroequilenin] = 126.0
5. C[C@]12CC[C@H]3C(=CCc4cc(O)ccc43)[C@@H]1CC[C@@H]2O [17b-dihydroequilin] = 108.7

Prompt: Quick one: % Initial of C[C@]12CCc3c(ccc4cc(O)ccc34)[C@@H]1CC[C@H]2O [17a-dihydroequilenin] ?
Completion: 123.0

Prompt: Again, but for C[C@]12CC[C@H]3C(=CCc4cc(O)ccc43)[C@@H]1CC[C@H]2O [17a-dihydroequilin]
Completion: 100.0

Prompt: Lookup C[C@]12CC[C@@H]3c4ccc(O)cc4CC[C@H]3[C@@H]1CC[C@@H]2O [17b-estradiol]
Completion: 71.4

Prompt: // next record C[C@]12CC[C@@H]3c4ccc(O)cc4CC[C@H]3[C@@H]1CC[C@H]2O [17a-estradiol]
Completion: 102.2

---

Test: Accelerated stability study of coated 0.625 mg conjugated estrogens tablets (active compounds and degradation products per USP, LOD)
Type: physicochemical
Details: acrylic-coated tablets, Lot EXPWS 1251; 40c, 75% RH/2m
experimental readout: % Initial (%)
All answers are understood in %, so give the number only.

Reference set, count: 8
1. C[C@]12CCC3=C(CCc4cc(O)ccc43)[C@@H]1CCC2=O [d8,9 dehydroesterone] = 96.9
2. C[C@]12CCc3c(ccc4cc(O)ccc34)[C@@H]1CCC2=O = 118.2
3. C[C@]12CCc3c(ccc4cc(O)ccc34)[C@@H]1CC[C@H]2O [17a-dihydroequilenin] = 141.8
4. C[C@]12CC[C@@H]3c4ccc(O)cc4CC[C@H]3[C@@H]1CC[C@H]2O [17a-estradiol] = 102.2
5. C[C@]12CC[C@H]3C(=CCc4cc(O)ccc43)[C@@H]1CC[C@@H]2O [17b-dihydroequilin] = 104.3
6. C[C@]12CC[C@H]3C(=CCc4cc(O)ccc43)[C@@H]1CCC2=O = 97.1
7. C[C@]12CCc3c(ccc4cc(O)ccc34)C1CCC2O (stereo partly drawn) [17b-dihydroequilenin] = 111.7
8. C[C@]12CC[C@H]3C(=CCc4cc(O)ccc43)[C@@H]1CC[C@H]2O [17a-dihydroequilin] = 98.3

Turning now to a further record.
Prompt: Which value of % Initial has been reported for C[C@]12CC[C@@H]3c4ccc(O)cc4CC[C@H]3[C@@H]1CC[C@@H]2O [17b-estradiol] in the records?
Completion: 76.2
